Test Target: ZIKV E protein (GZ01) (Zika virus (strain GZ01))
Experiment Description: ELISA
A collection of binders and their measured EC50
Provide the reading as a plain figure in µg/mL.

1) 2H-3 (antibody, V domains shown) VH: QVQLVQSGREVKKPGASVKVSCKASGYTFTSYEINWVRQATGQGLEWMGWMNPNSGNTGYAQKFQGRVTMTRNTSISTAYMELSSLRSEDTAVYYCARVSSGSYYGSYYYYYYGMDVWGQGTTVTVSS VL: SYELTQPPSASGTPGQRVTISCSGSSSNIGNNYVHWYQQLPGSAPKLLIYRNNQRPSGVPDRFSGSKSGTSGSLAISGLRSEDEADYYCASWDDSLSGHWVFGGGTKVTVL :: 0.0237

Could you now consider this next binder?
Tell me its EC50 given 2H-6 (antibody, V domains shown) VH: EVQLVQSGAEVKKPGASVKVSCKASGYTFTSYDVNWVRQATGQGLEWMGWLNPNSGNTGYAEKFQGRVTMTRNTSISTAYMELSSLRSEDTAVYYCARVSSGSYYGSYYYYYYGMDVWGQGTTVTVSS VL: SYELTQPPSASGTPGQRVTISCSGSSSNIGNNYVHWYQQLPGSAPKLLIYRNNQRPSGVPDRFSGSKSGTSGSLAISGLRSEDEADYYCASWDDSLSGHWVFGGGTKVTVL as the entry. 0.0046

Just for reference, paper PMC6821881 is where these values come from.
